- protocol: Intravenous and intraduodenal (bolus) bioavailability of zanamivir from Capmul MCM L8 25, 50, 75 µL (Example 7)
- protocol-conditions: male, Sprague-Dawley, rat, in vivo, 1.5 mg, t1/2, intraduodenal bolus, 1.5 mg/animal, 75 μL Capmul MCM L8; rat 963
observation-type: half-life (min)
Report as a plain number; the unit min is understood.

Task: I am curious: what half-life value has been reported for CC(=O)NC1C(NC(=N)N)C=C(C(=O)O)OC1C(O)C(O)CO (stereo not shown) [Zanamivir] ?
Output: 29.2

###

- protocol: Intravenous and intraduodenal bioavailability of zanamivir from three formulations (Example 5)
- protocol-conditions: male, Sprague-Dawley, rat, in vivo, 1.5 mg/animal, Plasma concentration, ID 1.5 mg/animal, PBS, 50 µL blank glycerol -2 hr; 0.25 hr; individual rats
observation-type: concentration at 0.25 hr (ng/mL)
Could you give me the number in ng/mL? Just the number is fine.

Task: Query (compound): CC(=O)NC1C(NC(=N)N)C=C(C(=O)O)OC1C(O)C(O)CO (stereo not shown) [Zanamivir] ; field requested: concentration at 0.25 hr
Output: 60.9

###

- protocol: Intravenous and intraduodenal bioavailability of zanamivir from three formulations (Example 5)
- protocol-conditions: male, Sprague-Dawley, rat, in vivo, iv, 1.5 mg, Vss, IV 1.5 mg/animal, Normal Saline, Ex.5; individual rats
observation-type: Vd

Task: Need Vd, item CC(=O)NC1C(NC(=N)N)C=C(C(=O)O)OC1C(O)C(O)CO (stereo not shown)
Output: 0.21 L/kg

###

- protocol: Intraduodenal bioavailability of zanamivir from glycerol and PBS formulations, enhancer pre-dose (Example 6)
- protocol-conditions: male, Sprague-Dawley, rat, in vivo, 1.5 mg/animal, Plasma concentration, ID 1.5 mg/animal, 50 µL PBS, 150 µL blank glycerol -2 hr; 1.5 hr; individual rats
observation-type: concentration at 1.5 hr (ng/mL)
Unit ng/mL implied. Number only.

Task: What concentration at 1.5 hr value was documented for this molecule, CC(=O)NC1C(NC(=N)N)C=C(C(=O)O)OC1C(O)C(O)CO (stereo not shown) ?
Output: 40.1

###

- protocol: Intraduodenal bioavailability of zanamivir from glycerol and PBS formulations, enhancer pre-dose (Example 6)
- protocol-conditions: male, Sprague-Dawley, rat, in vivo, 1.5 mg/animal, Plasma concentration, ID 1.5 mg/animal, 100 µL Glycerol; 2.0 hr; mean
observation-type: concentration at 2 hr (ng/mL)
Just the number please, in ng/mL, no unit attached.

Task: Suppose we examine the compound CC(=O)NC1C(NC(=N)N)C=C(C(=O)O)OC1C(O)C(O)CO (stereo not shown) ; what concentration at 2 hr value has been reported?
Output: 54.2

###

- protocol: Intraduodenal bioavailability of zanamivir from glycerol and PBS formulations, enhancer pre-dose (Example 6)
- protocol-conditions: male, Sprague-Dawley, rat, in vivo, 1.5 mg/animal, Plasma concentration, ID 1.5 mg/animal, 50 µL PBS, 150 µL blank glycerol -2 hr; 2.0 hr; mean
- Experimental: Male Sprague-Dawley rats (Hilltop Labs), 3 animals per treatment group, 250-350 grams in weight, were fitted with a jugular vein cannula (JVC). Animals intended for intraduodenal dosing were also fitted with one or more intraduodenal cannula (IDC) and those intended for intravenous dosing were fitted with a second JVC. […] In this example, the bioavailability of Zanamivir was evaluated after intraduodenal doses in male Sprague-Dawley rats. […] Plasma levels were determined by LC-MS/MS analysis. […]
observation-type: concentration at 2 hr (ng/mL)
Express it in ng/mL; write the number only.

Task: So what does the record say about concentration at 2 hr for CC(=O)NC1C(NC(=N)N)C=C(C(=O)O)OC1C(O)C(O)CO (stereo not shown) ?
Output: 54.1

###

- protocol: Intravenous and intraduodenal (bolus) bioavailability of zanamivir from Capmul MCM L8 25, 50, 75 µL (Example 7)
- protocol-conditions: male, Sprague-Dawley, rat, in vivo, iv, 1.5 mg, T1/2, IV 1.5 mg/animal, Normal Saline, Ex.7; mean
observation-type: half-life (min)
Give just the numeric value; min need not be written.

Task: May I ask what half-life has been recorded for CC(=O)NC1C(NC(=N)N)C=C(C(=O)O)OC1C(O)C(O)CO (stereo not shown) ?
Output: 23.8

###

- protocol: Intravenous and intraduodenal (bolus) bioavailability of zanamivir from Capmul MCM L8 25, 50, 75 µL (Example 7)
- protocol-conditions: male, Sprague-Dawley, rat, in vivo, 1.5 mg/animal, Plasma concentration, ID bolus 1.5 mg/animal, 25 µL Capmul MCM L8; 1.5 hr; mean
observation-type: concentration at 1.5 hr (ng/mL)
Form entry: value (ng/mL) — number only.

Task: # get_value(readout='concentration at 1.5 hr', item= CC(=O)NC1C(NC(=N)N)C=C(C(=O)O)OC1C(O)C(O)CO (stereo not shown) )
Output: 136

###

- protocol: Varying zanamivir levels at fixed 50 µL Capmul MCM L8, intraduodenal administration
- Type: in vivo, male Sprague-Dawley rats
- protocol-conditions: male, Sprague-Dawley, rat, plasma; ID, 0.75 mg zanamivir in 50 µL Capmul MCM L8
observation-type: Tmax (min)
The response must be a number in min with no trailing unit.

Task: I would be grateful if you could share the reported Tmax for CC(=O)NC1C(NC(=N)N)C=C(C(=O)O)OC1C(O)C(O)CO (stereo not shown) .
Output: 4.8

###

- protocol: Intravenous and intraduodenal bioavailability of zanamivir from three formulations (Example 5)
- protocol-conditions: male, Sprague-Dawley, rat, in vivo, 1.5 mg/animal, Plasma concentration, ID 1.5 mg/animal, Glycerol 50 µL; 2.0 hr; mean
observation-type: concentration at 2 hr

Task: Report concentration at 2 hr for CC(=O)NC1C(NC(=N)N)C=C(C(=O)O)OC1C(O)C(O)CO (stereo not shown) please.
Output: 61 ng/mL

###

- protocol: Intravenous and intraduodenal (bolus) bioavailability of zanamivir from Capmul MCM L8 25, 50, 75 µL (Example 7)
- protocol-conditions: male, Sprague-Dawley, rat, in vivo, iv, 1.5 mg/animal, Plasma concentration, IV 1.5 mg/animal, Normal Saline, Ex.7; 1.5 hr; individual rats
observation-type: concentration at 1.5 hr (ng/mL)
// return numeric value only (unit: ng/mL, not printed)

Task: Any idea what concentration at 1.5 hr was measured for CC(=O)NC1C(NC(=N)N)C=C(C(=O)O)OC1C(O)C(O)CO (stereo not shown) [Zanamivir] ?
Output: 741

###

- protocol: Intravenous and intraduodenal bioavailability of zanamivir from three formulations (Example 5)
- protocol-conditions: male, Sprague-Dawley, rat, in vivo, 1.5 mg, t1/2, ID 1.5 mg/animal, Glycerol 50 µL; individual rats
observation-type: half-life (min)
Write the number in min without appending the unit.

Task: // half-life lookup, key: CC(=O)NC1C(NC(=N)N)C=C(C(=O)O)OC1C(O)C(O)CO (stereo not shown)
Output: 17.4

###

- protocol: Intraduodenal bioavailability of zanamivir from glycerol and PBS formulations, enhancer pre-dose (Example 6)
- protocol-conditions: male, Sprague-Dawley, rat, in vivo, 1.5 mg/animal, Plasma concentration, ID 1.5 mg/animal, 100 µL Glycerol; 0.5 hr; mean
- Protocol: Male Sprague-Dawley rats (Hilltop Labs), 3 animals per treatment group, 250-350 grams in weight, were fitted with a jugular vein cannula (JVC). Animals intended for intraduodenal dosing were also fitted with one or more intraduodenal cannula (IDC) and those intended for intravenous dosing were fitted with a second JVC. […] In this example, the bioavailability of Zanamivir was evaluated after intraduodenal doses in male Sprague-Dawley rats. […] Plasma levels were determined by LC-MS/MS analysis. […]
observation-type: concentration at 0.5 hr (ng/mL)
Provide only the numeric value, understood in ng/mL.

Task: Item CC(=O)NC1C(NC(=N)N)C=C(C(=O)O)OC1C(O)C(O)CO (stereo not shown) [Zanamivir] has what recorded concentration at 0.5 hr?
Output: 48.7

###

- protocol: Intravenous and intraduodenal bioavailability of zanamivir from three formulations (Example 5)
- protocol-conditions: male, Sprague-Dawley, rat, in vivo, 1.5 mg, t1/2, ID 1.5 mg/animal, Glycerol 50 µL; mean
observation-type: half-life
Quick note: unit goes after the number.

Task: # half-life lookup, item CC(=O)NC1C(NC(=N)N)C=C(C(=O)O)OC1C(O)C(O)CO (stereo not shown)
Output: 17.4 min

###

- protocol: Intraduodenal bioavailability of zanamivir from glycerol and PBS formulations, enhancer pre-dose (Example 6)
- protocol-conditions: male, Sprague-Dawley, rat, in vivo, 1.5 mg/animal, Plasma concentration, ID 1.5 mg/animal, 150 µL Glycerol; 2.0 hr; mean
observation-type: concentration at 2 hr (ng/mL)
Reply with just the number (in ng/mL).

Task: Find the recorded concentration at 2 hr belonging to CC(=O)NC1C(NC(=N)N)C=C(C(=O)O)OC1C(O)C(O)CO (stereo not shown) and report it.
Output: 29.3

###

- protocol: Intraduodenal bioavailability of zanamivir from glycerol and PBS formulations, enhancer pre-dose (Example 6)
- protocol-conditions: male, Sprague-Dawley, rat, in vivo, 1.5 mg, t1/2, ID 1.5 mg/animal, 100 µL Glycerol; individual rats
observation-type: half-life (h)
Numbers only here, please. The scale is h.

Task: Please look up its half-life: CC(=O)NC1C(NC(=N)N)C=C(C(=O)O)OC1C(O)C(O)CO (stereo not shown) [Zanamivir]
Output: 1.77
